# Test system: NCI-H23 lung
# Assay protocol: NCI-60 one-dose screen, 48 h
# Details: 10 µM
The panel holds about 83,000 compounds, 20% with a hit somewhere; the sample as a whole holds those more often. The source made the active and inactive calls. Rule for the calls: active = growth percent below 10; inactive = the rest.
Possible outcomes: label 1 = active, label 0 = inactive

1. O=C(NCc1cn(Cc2cccc(Oc3ccccc3)c2)nn1)c1cccnc1Nc1ccccc1	label 0
2. Nc1cc(O)cc(O)c1	label 0
3. N#CC1C=Cc2c(ccc3ccccc23)N1C(=O)c1ccccc1 (centres undefined)	label 0
4. CN1CCN(c2nc(-c3cccnc3)nc3sc4c(c23)CCCCCC4)CC1	label 0
5. Cc1ccc(C)c(S(=O)(=O)NC2c3ccccc3Oc3ccccc32)c1	label 0
6. Cc1ccc(S(=O)(=O)Nc2cccc3[nH]c(C(F)(F)F)nc23)cc1	label 0
7. CCOC(=O)c1c(C(F)(F)F)n([O-])c2ccc(OC)cc2[n+]1=O	label 0
8. CCOC(=S)Sc1ccc([N+](=O)[O-])cc1[N+](=O)[O-]	label 0
9. CC[C@@]1(C(N)=O)CC2C=CC1C2 (some centres undefined)	label 0
10. CCOC(=O)c1cc(-c2ccccc2)nc(N)n1	label 0
11. FC(F)(F)c1ccc(-c2cnc(Cl)nc2NC2CCCCCC2)cc1	label 0
12. CS(=O)(=O)Nc1ccc([N+](=O)[O-])cc1Oc1ccccc1	label 0
13. Cc1nc2cc(-n3c(-c4ccc(F)cc4)nc4ccccc4c3=O)ccc2n1Cc1ccccc1	label 0
14. O=C(CCl)N1c2ccccc2Sc2ccc3ccccc3c21	label 1
15. O=C(O)CCCN1C(=O)NC2(C1=O)c1ccccc1-c1ccccc12	label 0
16. Cn1c(N)c(N=Cc2ccccc2)c(=O)n(C)c1=O	label 0
17. O=C1/C(=C/c2ccc(O)cc2O)N=C2SCCCN12	label 0
18. COc1ccc(CCc2nc3cc(-c4c(C)noc4C)ccc3n2CCN2CCOCC2)cc1	label 0
19. COCc1cc2c(cc1Br)OCO2	label 0
20. Cc1ccccc1[P+](Cc1ccccc1)(c1ccccc1)c1ccccc1	label 1
21. COc1ccc(-c2ccc(-c3ccc(C(=N)N)c(F)c3)s2)cc1	label 1
22. COc1ccc(-c2nnc(COc3ccc(NC(=O)Nc4cccc(C(F)(F)F)c4)cc3F)o2)cc1	label 0
23. Fc1ccc2[nH]c3c(NCCCN4CCOCC4)ncnc3c2c1	label 0
24. CCc1c(C(=O)NCc2c(O)ccc3cccc(O)c23)[nH]c(C)c1C(C)=O	label 0
25. CNC(=O)c1cc(Oc2ccc(NC(=O)Nc3ccc(Cl)c(OC4CCCCC4)c3)c(F)c2)ccn1	label 0
26. O=C1/C(=C/c2ccc(O)cc2)CSc2ccc(Cl)cc21	label 0
27. O=C(OCC1OC(n2cc(C(F)(F)F)c(=O)[nH]c2=O)CC1OC(=O)c1ccc([N+](=O)[O-])cc1)c1ccc([N+](=O)[O-])cc1 (centres undefined)	label 0
28. COc1ccc(-c2n/c(=C\c3c(O)[nH]c4ccccc34)cc3c2=Nc2ccccc2-3)cc1	label 0
29. COC(=O)c1cnc2c(c1)Oc1ccc(Cl)cc1-c1cc(C)nn1-2	label 0
30. O=C1/C(=C/c2ccc(O)cc2)Cc2ccc(Cl)cc21	label 0
31. O=C/C=C/c1ccc([N+](=O)[O-])cc1Cl	label 0
32. CC(=O)Nc1nc(C)c(C(=O)N/N=C/c2cccn2C)s1	label 0
33. N#CN1CC[C@H](C(=O)Nc2ncc(-c3ccncc3)s2)C1	label 1
34. CCOCC[P+](c1ccccc1)(c1ccccc1)c1ccccc1	label 0
35. O=[N+]([O-])c1ccc(-c2nc(-c3ccccc3)c(-c3ccccc3)n2-c2ccccc2)cc1	label 0
36. COc1ccc(S(=O)(=O)Nc2cc(/C=C\c3cc(OC)c(OC)c(OC)c3)ccc2OC)cc1	label 0
37. COc1ccc(C(=O)/C=C/c2cc(-c3ccc(OC)c(OC)c3)n[nH]2)cc1OC	label 1
38. O=C1/C(=C/c2ccc([N+](=O)[O-])s2)Oc2ccc(Cl)cc21	label 1
39. Cc1ccc([P+](Cc2ccccc2)(c2ccccc2)c2ccccc2)cc1	label 0
40. CCOC(=O)C1=C(Nc2ccc(OC)cc2)C(N)=NC1=N	label 0
41. CCCCn1c(=O)[nH]c(N)c(C(c2ccc(Cl)cc2)c2c(N)[nH]c(=O)n(CCCC)c2=O)c1=O	label 0
42. Nc1nsc(C(=O)c2ccc(O)cc2)n1	label 0
43. N#Cc1ccc(-n2cnc(NC(=O)[C@H]3CCN(C#N)C3)c2)cc1	label 0
44. COc1cc(C)c2sc3ccccc3c(=O)c2c1NCCN(C)C	label 0
